Below are IC50 values for Protein mono-ADP-ribosyltransferase PARP3 (Homo sapiens) collected from several publications.

Compound	Unit Label	Censoring Sign	IC50
CC(C)(C)c1ccc(C2NC(=O)c3ccccc3N2)cc1 (stereo not drawn)	µM	=	34
COc1ccc(C(=O)Nc2ccc(C(=O)N(c3ccncn3)c3ccccc3Cl)cc2)cc1	µM	>	100
COc1ccc(C2(CNC(=O)c3ccc(NC(=O)c4ccco4)cc3Cl)CCOCC2)cc1	µM	>	100
NC(=O)c1ccc(OCC2CCC2)cc1	µM	>	100
O=C1NCC(c2ccccn2)[C@@H](O)c2cc(Cl)c(Cl)cc21 (stereo partly drawn)	µM	=	74.1
Cc1cc(=O)[nH]c2cc(-c3ccccc3F)ccc12	µM	>	10
Cc1cccc2c(=O)[nH]c(CCC(=O)Nc3ccc(C(=O)Nc4cccc5cccnc45)cc3)nc12	µM	=	45
O=C(c1cc(Cc2n[nH]c(=O)c3ccccc23)ccc1F)N1CCn2c(nnc2-c2ccc(Br)o2)C1	µM	=	0.0011
